tested on: RPMI-8226 leukemia; test: NCI tumour cell line growth inhibition, 48 h
result.type: TGI (µM)

[[record]]
compound = "NC(=O)NC1=NC(Cc2ccccc2)C(=O)N1Cc1ccccc1 (stereo not drawn)"
censoring_qualifier = ">"
recorded_number = 100

[[record]]
compound = "O=[N+]([O-])c1ccc(N/N=C(\\c2ccccc2)c2ccccn2)nc1"
censoring_qualifier = ">"
recorded_number = 100

[[record]]
compound = "Cn1ccnc1C(=O)/C=C/c1ccc(CC(=O)Nc2ccc(F)cc2)cc1"
censoring_qualifier = "="
recorded_number = 5.44

[[record]]
compound = "CCC(c1ccc2cc(O)ccc2c1)C(C)(C)C(=O)O (stereo not drawn)"
censoring_qualifier = ">"
recorded_number = 100

[[record]]
compound = "c1ccc(CN2CCCCC(Sc3ccccc3)CC2)cc1 (stereo not drawn)"
censoring_qualifier = "="
recorded_number = 38.9

[[record]]
compound = "COC(=O)C1=C(CS(=O)c2ccc([N+](=O)[O-])cc2[N+](=O)[O-])ON(C)C1c1ccccc1 (stereo not drawn)"
censoring_qualifier = "="
recorded_number = 46

[[record]]
compound = "CC1OC(n2c3ccccc3c3c4c(c5c6ccccc6[nH]c5c32)C(=O)N(CCN2CCOCC2)C4=O)CC(O)C1O (stereo not drawn)"
censoring_qualifier = "="
recorded_number = 20.7

[[record]]
compound = "CC1=NC(C(C)C)C(=O)O1 (stereo not drawn)"
censoring_qualifier = "="
recorded_number = 56

[[record]]
compound = "CCCCCCCCCCCCCCCCCC(=O)OCC(C[As](=O)(O)O)OC(=O)CCCCCCCCCCCCCCCCC (stereo not drawn)"
censoring_qualifier = "="
recorded_number = 80.8

[[record]]
compound = "COc1ccc(C(=O)CC(=O)C(=O)Nc2ccc(C)c(C)c2)cc1"
censoring_qualifier = ">"
recorded_number = 68

[[record]]
compound = "CCC[CH2][Sn]1([CH2]CCC)[O]CC(CN2CCOCC2)[O]1 (stereo not drawn)"
censoring_qualifier = "="
recorded_number = 4.7

[[record]]
compound = "CC(=O)OC[C@@]1(C)[C@@H]2[C@@H]3[C@@]4(CO[C@]3(C)C(=O)[C@@]3(O)C[C@H](C)[C@H](OC(C)=O)[C@@H]3[C@H]4OC(C)=O)[C@H](OC(=O)c3ccccc3)C[C@@H]21"
censoring_qualifier = ">"
recorded_number = 100

[[record]]
compound = "COc1cc(-n2cnc(-c3ccc(Cl)cc3)c2)cc(OC)c1OC"
censoring_qualifier = "="
recorded_number = 32.2

[[record]]
compound = "CSC1=Nc2c(c(C)c(C)n2COC(CO)CO)C2=NC(=O)CC(C)N12 (stereo not drawn)"
censoring_qualifier = ">"
recorded_number = 100

[[record]]
compound = "CCN(CC)CCCCNc1ncc2cc(-c3cc(OC)cc(OC)c3)c(NC(=O)NC(C)(C)C)nc2n1"
censoring_qualifier = "="
recorded_number = 27.9

[[record]]
compound = "C=CC[C@@H]1/C=C(\\C)C[C@H](C)C[C@H](OC)[C@H]2O[C@@](O)(C(=O)C(=O)N3CCCC[C@H]3C(=O)O[C@H](/C(C)=C/C3CC[C@@H](O)[C@H](OC)C3)[C@H](C)[C@@H](O)CC1=O)[C@H](C)C[C@@H]2OC (stereo partly drawn)"
censoring_qualifier = "="
recorded_number = 32.2

[[record]]
compound = "Cc1c(NC(=O)c2cc([N+](=O)[O-])cc([N+](=O)[O-])c2)c(=O)n(-c2ccccc2)n1C"
censoring_qualifier = ">"
recorded_number = 100

[[record]]
compound = "CCC1CC(C)=CCN1S(=O)(=O)c1ccc(C)cc1 (stereo not drawn)"
censoring_qualifier = "="
recorded_number = 20.5


====

tested on: HL-60(TB) leukemia; test: NCI tumour cell line growth inhibition, 48 h
Quick reference: TGI of the listed items.
result.type: TGI (µM)

[[record]]
compound = "O=C1c2cc([N+](=O)[O-])cc3cc([N+](=O)[O-])cc(c23)C(=O)N1CCCNCCNCCCN1C(=O)c2cc([N+](=O)[O-])cc3cc([N+](=O)[O-])cc(c23)C1=O"
result_type = "TGI"
unit_label = "µM"
censoring_qualifier = "="
recorded_number = 1.13

[[record]]
compound = "Clc1ccc(C2=NN[C@H](c3cn(-c4ccccc4)nc3-c3ccccc3)C2)cc1"
result_type = "TGI"
unit_label = "µM"
censoring_qualifier = ">"
recorded_number = 100

[[record]]
compound = "CC(C)n1c(=O)n(C)c2cnc3cc(F)c(-c4ccc(OCCCN5CCCCC5)nc4)cc3c21"
result_type = "TGI"
unit_label = "µM"
censoring_qualifier = "="
recorded_number = 38.2

[[record]]
compound = "CC(C)n1c(=O)[nH]n(-c2ccccc2)c1=O"
result_type = "TGI"
unit_label = "µM"
censoring_qualifier = ">"
recorded_number = 100

[[record]]
compound = "C=C1CC2CC(=O)C(O)C(C1)C2 (stereo not given)"
result_type = "TGI"
unit_label = "µM"
censoring_qualifier = ">"
recorded_number = 100

[[record]]
compound = "CCOC(=O)c1c(-c2ccccc2)nc2c(OC)nccn12"
result_type = "TGI"
unit_label = "µM"
censoring_qualifier = ">"
recorded_number = 100

[[record]]
compound = "COc1ccc(C(=O)C(C(=O)C(=O)NC2C3CC4CC(C3)CC2C4)c2ccc(OC)cc2)cc1 (stereo not given)"
result_type = "TGI"
unit_label = "µM"
censoring_qualifier = ">"
recorded_number = 100

[[record]]
compound = "NC1=CC(=O)c2nc3ccccc3c3ccnc1c23"
result_type = "TGI"
unit_label = "µM"
censoring_qualifier = ">"
recorded_number = 58.8

[[record]]
compound = "CC1(C)N=C(N)N=C(N)N1c1cccc(CCCCOc2ccccc2)c1"
result_type = "TGI"
unit_label = "µM"
censoring_qualifier = "="
recorded_number = 9.6

[[record]]
compound = "CC(C(=O)O)/C(=C\\c1ccc2c(c1)OCO2)C(=O)O (stereo not given)"
result_type = "TGI"
unit_label = "µM"
censoring_qualifier = "="
recorded_number = 0.21

[[record]]
compound = "CC(=O)O[C@H]1CC[C@@]2(C)C(=C[C@H](c3ccc(O)cc3)[C@H]3[C@@H]4CC[C@H](OC(C)=O)[C@@]4(C)CC[C@@H]32)C1"
result_type = "TGI"
unit_label = "µM"
censoring_qualifier = "="
recorded_number = 58

[[record]]
compound = "CCN(CC)CCCC(Cc1ccccc1)Nc1c2ccc(Cl)cc2nc2ccc(OC)cc12 (stereo not given)"
result_type = "TGI"
unit_label = "µM"
censoring_qualifier = "="
recorded_number = 4.45

[[record]]
compound = "O=C1CCC(N2Cc3c(C#CCCCNC(=O)c4cc5c(o4)C(=O)c4ccccc4C5=O)cccc3C2=O)C(=O)N1 (stereo not given)"
result_type = "TGI"
unit_label = "µM"
censoring_qualifier = "="
recorded_number = 7.34

[[record]]
compound = "COc1cc2c(cc1OC)-c1c(oc3cc(OC4OC(CO)C(O)C(O)C4O)c(OC)cc3c1=O)C(O)O2 (stereo not given)"
result_type = "TGI"
unit_label = "µM"
censoring_qualifier = ">"
recorded_number = 100

[[record]]
compound = "CSc1nc2c(c(=O)[nH]1)N=C(c1ccc(Cl)cc1)CC(c1ccccc1)N2 (stereo not given)"
result_type = "TGI"
unit_label = "µM"
censoring_qualifier = "="
recorded_number = 39.6

[[record]]
compound = "CC1(C)CCCCCCC2CC2CCCCCC(C)(C)C1=O (stereo not given)"
result_type = "TGI"
unit_label = "µM"
censoring_qualifier = "="
recorded_number = 32.7

[[record]]
compound = "N#C/C(=C1C=C/C(=N\\O)C(Cl)=C\\1)c1ccccc1"
result_type = "TGI"
unit_label = "µM"
censoring_qualifier = "="
recorded_number = 5.67

[[record]]
compound = "CCOC(=O)c1[nH]cc(C)c1-c1c[nH]c2ccccc12"
result_type = "TGI"
unit_label = "µM"
censoring_qualifier = ">"
recorded_number = 100

[[record]]
compound = "c1ccc(CN2CCCCC(Sc3ccccc3)CC2)cc1 (stereo not given)"
result_type = "TGI"
unit_label = "µM"
censoring_qualifier = "="
recorded_number = 46.3

[[record]]
compound = "COc1ccc(OC)c(/C=C2\\COc3ccc(O)c(O)c3C2=O)c1"
result_type = "TGI"
unit_label = "µM"
censoring_qualifier = "="
recorded_number = 16.1


====

system: LOX IMVI melanoma; test: NCI tumour cell line growth inhibition, 48 h
result.type: GI50

[[record]]
compound = "O=C1CC[C@H](c2ccc(O)c3c2C(=O)[C@@H]2O[C@@H]2C3=O)c2cccc(O)c21"
result_type = "GI50"
result = "0.976 µM"

[[record]]
compound = "C=CC[C@@H]1/C=C(\\C)C[C@H](C)C[C@H](OC)[C@H]2O[C@@](O)(C(=O)C(=O)N3CCCC[C@H]3C(=O)O[C@H](/C(C)=C/C3CC[C@@H](O)[C@H](OC)C3)[C@H](C)[C@@H](O)CC1=O)[C@H](C)C[C@@H]2OC (some centres undefined)"
result_type = "GI50"
result = "15 µM"

[[record]]
compound = "CCOC(=O)c1c(Cl)c2c(n1Cc1cccc(OC)c1)-c1oncc1CC2"
result_type = "GI50"
result = "2.51 µM"

[[record]]
compound = "CCN(CC)CCCCNc1ncc2cc(-c3cc(OC)cc(OC)c3)c(NC(=O)NC(C)(C)C)nc2n1"
result_type = "GI50"
result = "5.34 µM"

[[record]]
compound = "COc1ccc(-c2nn(-c3cccc(NC(=O)c4cccc(C(F)(F)F)c4)c3)cc2-c2ccncc2)cc1Cl"
result_type = "GI50"
result = "3.08 µM"

[[record]]
compound = "O=C(NCCNc1nccc(-c2c(-c3ccc(F)cc3)nc3sccn23)n1)c1ccccc1"
result_type = "GI50"
result = "4.3 µM"

[[record]]
compound = "Clc1ccc(C2=NN[C@H](c3cn(-c4ccccc4)nc3-c3ccccc3)C2)cc1"
result_type = "GI50"
result = "3.99 µM"

[[record]]
compound = "O=C1CCC(N2Cc3c(C#CCCCNC(=O)c4cc5c(o4)C(=O)c4ccccc4C5=O)cccc3C2=O)C(=O)N1 (centres undefined)"
result_type = "GI50"
result = "2.14 µM"

[[record]]
compound = "C/C(=C\\CCc1ccsc1)CC/C=C(\\C)CCCN1CCC(CO)CC1"
result_type = "GI50"
result = "1.77 µM"

[[record]]
compound = "CCn1c(-c2nonc2N)nc2cncc(C(=O)NCCNC)c21"
result_type = "GI50"
result = "> 25 µM"

[[record]]
compound = "Cc1c(-c2nnc(-c3ccc(F)cc3)o2)nnn1-c1ccnc2c(C(F)(F)F)cccc12"
result_type = "GI50"
result = "44.5 µM"

[[record]]
compound = "Cn1ccnc1C(=O)/C=C/c1ccc(CC(=O)Nc2ccc(F)cc2)cc1"
result_type = "GI50"
result = "0.712 µM"

[[record]]
compound = "O=S(=O)(CCNCc1ccc(-c2ccc3ncnc(Nc4ccc(OCc5cccc(F)c5)c(Cl)c4)c3c2)o1)c1ccccc1"
result_type = "GI50"
result = "> 25 µM"

[[record]]
compound = "CSC1=Nc2c(c(C)c(C)n2COC(CO)CO)C2=NC(=O)CC(C)N12 (centres undefined)"
result_type = "GI50"
result = "> 100 µM"

